Data origin: paper PMC6332040

measuredQuantity: melting point

compound | measuredQuantity | observedResult
CC(=O)NS(=O)(=O)c1ccc(-c2ccc(C)cc2)s1 [Compound 4d] | melting point | 161 to 163 °C
CC(=O)NS(=O)(=O)c1ccc(-c2cc(C(F)(F)F)cc(C(F)(F)F)c2)s1 [Compound 4b] | melting point | 168 °C
CC(=O)NS(=O)(=O)c1ccc(-c2ccccc2)s1 [Compound 4a] | melting point | 158 to 160 °C
CC(=O)NS(=O)(=O)c1ccc(-c2ccc(Cl)c(Cl)c2)s1 [Compound 4c] | melting point | 148 to 150 °C
CC(=O)NS(=O)(=O)c1ccc(-c2cc(C)cc(C)c2)s1 [Compound 4e] | melting point | 148 to 149 °C

Ask: Read the entry CC(=O)NS(=O)(=O)c1ccc(-c2ccc(C)s2)s1 [Compound 4f] and write its reported melting point.
Result: 167 to 168.4 °C

Ask: Provide only the value of recorded melting point for CC(=O)NS(=O)(=O)c1ccc(-c2ccc(Cl)cc2)s1 [Compound 4g]
Result: 167 to 170 °C

---

targetDesc: Jack bean urease enzyme (Canavalia ensiformis)
testProtocol: biochemical
Assay type: biochemical
testConditions: IC50, urease, Table 6 series (4e–g), pH 6.8
measuredQuantity: pIC50
By convention, pIC50 is the negative base-10 log of a molar concentration.

molecule | targetDesc | measuredQuantity | observedResult
CC(=O)NS(=O)(=O)c1ccc(-c2cc(C)cc(C)c2)s1 [Compound 4e] | Jack bean urease enzyme (Canavalia ensiformis) | pIC50 | 4.24

Ask: Look up and report measured pIC50 for this entry: CC(=O)NS(=O)(=O)c1ccc(-c2ccc(Cl)cc2)s1 [Compound 4g]
Result: 4.13

---

targetDesc: Jack bean urease enzyme (Canavalia ensiformis)
testProtocol: biochemical
Type: biochemical
testConditions: IC50, urease, Table 5 series (4a–d), pH 6.8
measuredQuantity: IC50 (µM)
# output: bare number, implied unit µM

Ask: For the molecule CC(=O)NS(=O)(=O)c1ccc(-c2ccc(C)cc2)s1 [Compound 4d] , give its measured IC50 value.
Result: 738

---

targetDesc: Jack bean urease enzyme (Canavalia ensiformis, UniProt P07374)
Sequence (P07374 whole entry, looked up): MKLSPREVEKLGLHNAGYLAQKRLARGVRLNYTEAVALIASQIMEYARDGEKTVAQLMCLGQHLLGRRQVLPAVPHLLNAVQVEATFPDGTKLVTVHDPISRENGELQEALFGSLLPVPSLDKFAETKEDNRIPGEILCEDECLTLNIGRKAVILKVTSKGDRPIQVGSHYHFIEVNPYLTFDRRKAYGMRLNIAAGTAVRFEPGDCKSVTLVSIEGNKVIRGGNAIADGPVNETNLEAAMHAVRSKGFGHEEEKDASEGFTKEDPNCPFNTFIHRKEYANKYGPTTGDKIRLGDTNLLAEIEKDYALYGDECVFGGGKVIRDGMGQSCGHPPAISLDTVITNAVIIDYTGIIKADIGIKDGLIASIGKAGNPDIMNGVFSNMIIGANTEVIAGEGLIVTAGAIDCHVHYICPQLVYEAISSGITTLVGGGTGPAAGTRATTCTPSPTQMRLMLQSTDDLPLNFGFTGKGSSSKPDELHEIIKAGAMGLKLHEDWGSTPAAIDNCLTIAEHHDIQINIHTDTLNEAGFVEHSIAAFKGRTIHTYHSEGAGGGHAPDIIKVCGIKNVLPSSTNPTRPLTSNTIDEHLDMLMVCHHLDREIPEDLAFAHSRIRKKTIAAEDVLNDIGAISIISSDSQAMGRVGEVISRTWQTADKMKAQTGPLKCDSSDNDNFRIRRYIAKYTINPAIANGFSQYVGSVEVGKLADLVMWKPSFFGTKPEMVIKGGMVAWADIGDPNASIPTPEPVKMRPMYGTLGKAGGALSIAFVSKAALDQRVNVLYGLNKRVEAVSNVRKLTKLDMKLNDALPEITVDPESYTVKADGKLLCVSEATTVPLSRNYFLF
testProtocol: biochemical
Type: biochemical
testConditions: urease inhibition at 250 µg/mL, pH 6.8
Listing: Percent urease inhibition of selected molecules
Dear colleague, please return just the value in %, with no unit written.

Some entries whose results are on file:
molecule | Percent urease inhibition [%]
CC(=O)NS(=O)(=O)c1ccc(-c2ccc(C)cc2)s1 | 54
CC(=O)NS(=O)(=O)c1ccc(-c2ccc(Cl)c(Cl)c2)s1 | 78
NC(N)=S [Standard, Thiourea, reference compound] | 95
CC(=O)NS(=O)(=O)c1ccc(-c2ccccc2)s1 | 89

Ask: Identify measured Percent urease inhibition associated with CC(=O)NS(=O)(=O)c1ccc(-c2cc(C(F)(F)F)cc(C(F)(F)F)c2)s1
Result: 56

---

Measured Percent urease inhibition accompanies every entry in the list below.
targetDesc: Jack bean urease enzyme (Canavalia ensiformis, UniProt P07374)
testProtocol: biochemical
Type: biochemical
testConditions: urease inhibition at 40 µg/mL, pH 6.8
# value in %; strip the unit string

Record excerpt, results attached:
compound | Percent urease inhibition (%)
NC(N)=S [Standard, Thiourea, reference compound] | 65
CC(=O)NS(=O)(=O)c1ccc(-c2ccc(C)s2)s1 | 92.12
CC(=O)NS(=O)(=O)c1ccc(-c2ccc(Cl)cc2)s1 | 90.97

Ask: Respond only with Percent urease inhibition recorded for CC(=O)NS(=O)(=O)c1ccc(-c2cc(C)cc(C)c2)s1
Result: 91.21
